test-system: human muscarinic M2 receptor (Homo sapiens)
Sequence (P08172 whole entry): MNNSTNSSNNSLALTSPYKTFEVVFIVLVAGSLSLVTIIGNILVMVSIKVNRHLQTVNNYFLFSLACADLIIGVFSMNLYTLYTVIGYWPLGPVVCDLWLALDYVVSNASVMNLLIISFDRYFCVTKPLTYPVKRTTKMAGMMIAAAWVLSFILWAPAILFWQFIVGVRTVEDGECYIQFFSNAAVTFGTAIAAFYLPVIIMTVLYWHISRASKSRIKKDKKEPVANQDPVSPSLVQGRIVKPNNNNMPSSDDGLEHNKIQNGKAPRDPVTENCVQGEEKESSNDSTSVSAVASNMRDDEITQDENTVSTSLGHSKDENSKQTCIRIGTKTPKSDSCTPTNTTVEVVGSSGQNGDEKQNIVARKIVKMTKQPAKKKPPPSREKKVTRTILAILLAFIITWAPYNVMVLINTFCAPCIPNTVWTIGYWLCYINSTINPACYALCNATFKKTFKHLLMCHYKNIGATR
experimental-details: Alphascreen Surefire phospho-ERK1/2 functional assay, M2
Format: cell-based
condition-parameters: pEC50 M2, CHO cells stably expressing human M2; phospho-ERK1/2
Exercise: for every item that follows, state its recorded pEC50.
In simple prose, pEC50 is minus the logarithm base ten of a concentration in moles per litre.

// query pEC50 value for entry CCOC(=O)N1C2COCC1CC(N1CCC(C(=O)NCC3CCC3)CC1)C2 (single isomer, unassigned) [Example 7-3 Isomer 1]
5.83

Ok, now CCOC(=O)N1C2COCC1CC(N1CCC(N(CC(C)C)C(C)=O)CC1)C2 (single isomer, unassigned) [Example 6-1 Isomer 2]
6.49

Note, next up: CCOC(=O)N1C2COCC1CC(N1CCC(n3cc(C)cn3)CC1)C2 (single isomer, unassigned) [Example 1-3 Isomer 1]
6.55

CCOC(=O)N1C2COCC1CC(N1CCC(N(CC3(C)CCC3)C(C)=O)CC1)C2 (single isomer, unassigned) [Example 6-4 Isomer 1] , same question.
6.44

# iterate: CCOC(=O)N1C2COCC1CC(N1CCC(N3CCCCC3=O)CC1)C2 (single isomer, unassigned) [Example 6-6 Isomer 1]
6.47

Now the compound CCOC(=O)N1C2COCC1CC(N1CCC(N3CC(F)(F)C[C@@H]3CO)CC1)C2 (single isomer, unassigned) [Example 4-1 Isomer 1]
6.60

Again, but for CCOC(=O)N1C2COCC1CC(N1CCC(N3CCCCCC3=O)CC1)C2 (single isomer, unassigned) [Example 6-7 Isomer 1]
5.99

Same lookup for CCOC(=O)N1C2COCC1CC(N1CCC(N(Cc3ccccc3)C(C)=O)CC1)C2 (single isomer, unassigned) [Example 6-5 Isomer 2] , please.
5.63

Likewise for CCOC(=O)N1C2COCC1CC(N1CCC3(CC1)C(=O)Nc1ccccc13)C2 (single isomer, unassigned) [Example 5-5 Isomer 2] ?
7.12

Same question, CCOC(=O)N1C2COCC1CC(N1CCC(n3cc(Cl)cn3)CC1)C2 (single isomer, unassigned) [Example 1-2 Isomer 1] this time
7.06

----------
test-system: human muscarinic M1 receptor (Homo sapiens)
experimental-details: Alphascreen Surefire phospho-ERK1/2 functional assay, M1
Format: cell-based
condition-parameters: pEC50 M1, CHO cells stably expressing human M1; phospho-ERK1/2
Description: Functional assays were performed using the Alphascreen Surefire phospho-ERK1/2 assay (Crouch & Osmond, Comb. Chem. High Throughput Screen, 2008). ERK1/2 phosphorylation is a downstream consequence of both Gq/11 and Gi/o protein coupled receptor activation, making it highly suitable for the assessment of M1, M3 (Gq/11 coupled) and M2, M4 receptors (Gi/o coupled), rather than using different assay formats for different receptor subtypes. […]
For each record, write down the corresponding EC50.

Which EC50 is reported for this compound? CCOC(=O)N1C2COCC1CC(N1CCC(N3CCCCC3=O)CC1)C2 (single isomer, unassigned) [Example 6-6 Isomer 2]
977 nM

Try the compound CCOC(=O)N1C2COCC1CC(N1CCC3(CC1)OC(=O)NC3CC)C2 (single isomer, unassigned) [Example 5-4 Isomer 1b]
> 20000 nM

And then CCOC(=O)N1C2COCC1CC(N1CCC(N(CC3(C)CC3)C(C)=O)CC1)C2 (single isomer, unassigned) [Example 6-3 Isomer 1] , what is it?
120 nM

// same read-out, input: CCOC(=O)N1C2COCC1CC(N1CCC(N(CC(C)C)C(C)=O)CC1)C2 (single isomer, unassigned) [Example 6-1 Isomer 2]
61.7 nM

Next up: CCOC(=O)N1C2COCC1CC(N1CCC(c3ccc[nH]c3=O)CC1)C2 (single isomer, unassigned) [Example 2-3 Isomer 1]
195 nM

Query CCOC(=O)N1C2COCC1CC(N1CCC(N3CCCCCC3=O)CC1)C2 (single isomer, unassigned) [Example 6-7 Isomer 2] next
2190 nM

----------
test-system: UniProt P11229
Sequence (P11229 1-460): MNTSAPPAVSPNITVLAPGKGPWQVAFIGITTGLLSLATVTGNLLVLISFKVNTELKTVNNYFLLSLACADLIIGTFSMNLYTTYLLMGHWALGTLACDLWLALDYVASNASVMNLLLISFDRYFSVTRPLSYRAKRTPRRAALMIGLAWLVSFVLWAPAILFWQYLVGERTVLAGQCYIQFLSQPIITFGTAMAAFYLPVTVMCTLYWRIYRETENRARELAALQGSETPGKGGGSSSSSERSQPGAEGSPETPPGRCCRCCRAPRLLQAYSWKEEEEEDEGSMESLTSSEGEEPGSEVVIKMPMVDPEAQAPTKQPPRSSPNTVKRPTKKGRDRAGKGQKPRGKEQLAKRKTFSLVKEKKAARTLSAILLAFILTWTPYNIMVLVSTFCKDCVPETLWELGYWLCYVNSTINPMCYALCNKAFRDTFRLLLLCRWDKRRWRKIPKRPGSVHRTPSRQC
experimental-details: Alphascreen Surefire phospho-ERK1/2 functional assay, M1
Type: cell-based
condition-parameters: pEC50 M1, CHO cells stably expressing human M1; phospho-ERK1/2
quantity-measured: EC50 (nM)
Please state the figure in nM; there is no need to write the unit.

// lookup EC50 for CCOC(=O)N1C2COCC1CC(N1CCC(N3CC(F)(F)C[C@@H]3CO)CC1)C2 (single isomer, unassigned) [Example 4-1 Isomer 2]
398

Param item: CCOC(=O)N1C2COCC1CC(N1CCC3(CC1)C(=O)Nc1ccccc13)C2 (single isomer, unassigned) [Example 5-5 Isomer 1]
288

Would you mind doing COC(=O)N1C2COCC1CC(N1CCC(N(Cc3ccccc3)C(C)=O)CC1)C2 (single isomer, unassigned) [Example 8-2 Isomer 2] as well?
603

Further, for CCOC(=O)N1C2COCC1CC(N1CCC(N(Cc3ccccc3)C(C)=O)CC1)C2 (single isomer, unassigned) [Example 6-5 Isomer 2] ?
15.8

Record: CCOC(=O)N1C2COCC1CC(N1CCC3(CC1)OC(=O)NC3CC)C2 (single isomer, unassigned) [Example 5-4 Isomer 2b]
74.1

Then this molecule: CCOC(=O)N1C2COCC1CC(N1CCC(N3CCCCC3=O)CC1)C2 (single isomer, unassigned) [Example 6-6 Isomer 1]
251

Then what about the molecule CCOC(=O)N1C2COCC1CC(N1CCC3(CC1)CNC(=O)C3)C2 (single isomer, unassigned) [Example 5-2 Isomer 2] ?
43.7

Here is the next molecule: CCOC(=O)N1C2COCC1CC(N1CCC(N(Cc3ccccc3)C(C)=O)CC1)C2 (single isomer, unassigned) [Example 6-5 Isomer 1]
166

// repeat for CCOC(=O)N1C2COCC1CC(N1CCC3(CC1)OC(=O)NC3CC)C2 (single isomer, unassigned) [Example 5-4 Isomer 2a] and report
977

Check CCOC(=O)N1C2COCC1CC(N1CCC(C(=O)NCC3CCC3)CC1)C2 (single isomer, unassigned) [Example 7-3 Isomer 1] too.
35.5

Please give the result for CCOC(=O)N1C2COCC1CC(N1CCC3(CC1)CC3)C2 (single isomer, unassigned) [Example 5-1 Isomer 1] too.
72.4

Also need COC(=O)N1C2COCC1CC(N1CCC(N(CC3(C)CCC3)C(C)=O)CC1)C2 (single isomer, unassigned) [Example 8-1 Isomer 2] , thanks.
234

Now this one: CCOC(=O)N1C2COCC1CC(N1CCC(c3ccc[nH]c3=O)CC1)C2 (single isomer, unassigned) [Example 2-3 Isomer 2]
174

Next up: CCOC(=O)N1C2COCC1CC(N1CCC3(CC1)CC3)C2 (single isomer, unassigned) [Example 5-1 Isomer 2]
141

And then CCOC(=O)N1C2COCC1CC(N1CCC(n3cc(C)cn3)CC1)C2 (single isomer, unassigned) [Example 1-3 Isomer 1] , what is it?
55

Entry to check: CCOC(=O)N1C2COCC1CC(N1CCC(n3cc(Cl)cn3)CC1)C2 (single isomer, unassigned) [Example 1-2 Isomer 1]
15.1

Another molecule to check: CCOC(=O)N1C2COCC1CC(N1CCC(C(=O)NCC(C)C)CC1)C2 (single isomer, unassigned) [Example 7-2 Isomer 1]
79.4

----------
test-system: human muscarinic M4 receptor (Homo sapiens, UniProt P08173)
Sequence (P08173 whole entry): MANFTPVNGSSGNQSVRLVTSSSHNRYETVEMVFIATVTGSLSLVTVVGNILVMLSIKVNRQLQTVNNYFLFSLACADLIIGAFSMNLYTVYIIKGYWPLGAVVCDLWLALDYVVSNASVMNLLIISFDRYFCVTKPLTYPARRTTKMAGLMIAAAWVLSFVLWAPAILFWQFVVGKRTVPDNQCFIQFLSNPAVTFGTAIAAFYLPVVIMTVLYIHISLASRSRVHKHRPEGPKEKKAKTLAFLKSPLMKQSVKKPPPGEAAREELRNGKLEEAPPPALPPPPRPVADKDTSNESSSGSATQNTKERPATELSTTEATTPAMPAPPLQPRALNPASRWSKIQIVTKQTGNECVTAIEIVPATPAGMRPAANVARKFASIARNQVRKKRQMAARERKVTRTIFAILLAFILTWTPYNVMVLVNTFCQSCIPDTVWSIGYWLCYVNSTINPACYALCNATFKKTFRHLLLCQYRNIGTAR
experimental-details: Alphascreen Surefire phospho-ERK1/2 functional assay, M4
Assay type: cell-based
condition-parameters: pEC50 M4, CHO cells stably expressing human M4; phospho-ERK1/2
pEC50: −log10 of the molar value.
Quick rule for you: pEC50 at 7 or higher means True, lower means False.

Could you please find out whether COC(=O)N1C2COCC1CC(N1CCC(N(Cc3ccccc3)C(C)=O)CC1)C2 (single isomer, unassigned) [Example 8-2 Isomer 2] has pEC50 that meets 7 or exceeds it?
False

And the next one, CCOC(=O)N1C2COCC1CC(N1CCC3(CC1)CC3)C2 (single isomer, unassigned) [Example 5-1 Isomer 1] ?
False

// query: CCOC(=O)N1C2COCC1CC(N1CCC(c3ccc[nH]c3=O)CC1)C2 (single isomer, unassigned) [Example 2-3 Isomer 2]
True

Again, but for COC(=O)N1C2COCC1CC(N1CCC(N(CC3(C)CCC3)C(C)=O)CC1)C2 (single isomer, unassigned) [Example 8-1 Isomer 2]
False

Another molecule to check: CCOC(=O)N1C2COCC1CC(N1CCC(n3cc(Cl)cn3)CC1)C2 (single isomer, unassigned) [Example 1-2 Isomer 1]
True

Another: CCOC(=O)N1C2COCC1CC(N1CCC(n3cc(Cl)cn3)CC1)C2 (single isomer, unassigned) [Example 1-2 Isomer 2]
True

Also CCOC(=O)N1C2COCC1CC(N1CCC(N(CC3(C)CCC3)C(C)=O)CC1)C2 (single isomer, unassigned) [Example 6-4 Isomer 1] ?
True

Another molecule: CCOC(=O)N1C2COCC1CC(N1CCC3(CC1)CNC(=O)C3)C2 (single isomer, unassigned) [Example 5-2 Isomer 2]
False
